These measurements were taken from ChEMBL document CHEMBL4261639.

target: Poly(ADP-ribose) glycohydrolase (Homo sapiens, UniProt Q86W56); test: Inhibition of PARG in human HeLa cells assessed as induction of MMS-induced PAR chains preincubated for 1 hr followed by MMS addition and measured after 1 hr by Alexofluor 488-conjugated secondary antibody and Hoechst 33342 staining based assay; format: cell-based
Sequence (Q86W56 whole entry): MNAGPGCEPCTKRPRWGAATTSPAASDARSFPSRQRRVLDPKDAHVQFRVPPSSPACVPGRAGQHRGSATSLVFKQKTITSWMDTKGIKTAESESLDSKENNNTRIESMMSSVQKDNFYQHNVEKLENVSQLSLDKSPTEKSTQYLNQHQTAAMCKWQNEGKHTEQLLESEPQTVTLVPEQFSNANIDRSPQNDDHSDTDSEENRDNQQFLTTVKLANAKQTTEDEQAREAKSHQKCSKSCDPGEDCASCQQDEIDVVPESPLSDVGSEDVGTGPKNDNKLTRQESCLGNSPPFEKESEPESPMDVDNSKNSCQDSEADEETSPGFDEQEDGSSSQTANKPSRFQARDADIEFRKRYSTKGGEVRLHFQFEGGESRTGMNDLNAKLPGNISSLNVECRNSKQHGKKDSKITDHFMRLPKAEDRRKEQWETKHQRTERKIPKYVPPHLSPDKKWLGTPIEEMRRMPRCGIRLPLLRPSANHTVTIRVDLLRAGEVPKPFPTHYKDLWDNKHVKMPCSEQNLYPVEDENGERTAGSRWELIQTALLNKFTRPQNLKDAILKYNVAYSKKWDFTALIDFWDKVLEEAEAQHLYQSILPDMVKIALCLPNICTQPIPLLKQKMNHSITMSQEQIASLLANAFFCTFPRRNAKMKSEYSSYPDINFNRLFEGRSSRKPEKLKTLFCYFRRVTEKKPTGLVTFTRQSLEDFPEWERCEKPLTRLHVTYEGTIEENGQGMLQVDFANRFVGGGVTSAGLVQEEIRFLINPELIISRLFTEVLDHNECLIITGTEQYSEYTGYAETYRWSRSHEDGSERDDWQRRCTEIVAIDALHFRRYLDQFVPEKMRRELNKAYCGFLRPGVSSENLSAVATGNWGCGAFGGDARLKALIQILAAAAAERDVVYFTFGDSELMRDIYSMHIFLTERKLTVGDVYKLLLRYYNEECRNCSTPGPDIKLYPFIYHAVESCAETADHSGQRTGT
observed_property: EC50 (nM)

> print(dat)
                         compound.structure  recorded.value
1  C#CCn1c(=O)n(CC#N)c(=O)c2cc(S(=O)(=O)NC3(C)CC3)ccc21             270

(A) Cc1cc(Cn2c(=O)c3cc(S(=O)(=O)NC4(C)CC4)ccc3n(CC3CC3)c2=O)on1
(B) CC1(NS(=O)(=O)c2ccc3c(c2)c(=O)n(CC#N)c(=O)n3CC2CC2)CC1
[ask] Higher EC50 between A and B ? The response must carry the label of the picked entry.
[reply] B
(B: 1100 nM, A: 49 nM)

###

biological target: Cytochrome P450 3A4 (Homo sapiens, UniProt P08684)
Sequence (P08684 whole entry): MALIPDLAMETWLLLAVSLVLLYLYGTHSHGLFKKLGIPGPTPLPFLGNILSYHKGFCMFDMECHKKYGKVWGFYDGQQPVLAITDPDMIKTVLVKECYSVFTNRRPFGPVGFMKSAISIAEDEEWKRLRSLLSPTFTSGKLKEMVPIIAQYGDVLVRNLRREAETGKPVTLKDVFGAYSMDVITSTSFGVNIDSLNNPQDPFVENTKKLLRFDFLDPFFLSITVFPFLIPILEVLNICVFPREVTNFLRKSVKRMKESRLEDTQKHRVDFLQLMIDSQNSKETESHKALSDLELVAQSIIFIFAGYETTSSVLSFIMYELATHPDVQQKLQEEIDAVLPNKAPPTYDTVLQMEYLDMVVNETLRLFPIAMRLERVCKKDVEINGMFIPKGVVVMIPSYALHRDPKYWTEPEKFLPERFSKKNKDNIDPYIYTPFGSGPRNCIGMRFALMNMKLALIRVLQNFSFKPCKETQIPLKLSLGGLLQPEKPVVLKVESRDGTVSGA
pIC50: −log10 of the molar value.
observed_property: pIC50

Fill in: Cytochrome P450 3A4 (Homo sapiens, UniProt P08684) pIC50 for "Cc1cc(Cn2c(=O)c3cc(S(=O)(=O)NC4(C)CC4)ccc3n(CC3COC3)c2=O)on1" = < 4.60

###

assay: Apparent permeability across apical to basolateral side in human Caco2 cells; format: ADME, cell-based; settings: Caco-2
observed_property: Papp A→B (×10⁻⁶ cm/s)

(I) Cn1cc(Cn2c(=O)c3cc(S(=O)(=O)NC4(C)CC4)ccc3n(CC3COC3)c2=O)cn1
(II) Cc1cc(Cn2c(=O)c3cc(S(=O)(=O)NC4(C)CC4)ccc3n(CC3COC3)c2=O)on1
[ask] Higher Papp A→B between I and II ? The response must carry the label of the picked entry.
[reply] II

###

experiment: Efflux ratio of apparent permeability in human Caco2 cells; settings: Caco-2
observed_property: efflux ratio

(I) Cn1cc(Cn2c(=O)c3cc(S(=O)(=O)NC4(C)CC4)ccc3n(CC3COC3)c2=O)cn1
(II) Cc1cc(Cn2c(=O)c3cc(S(=O)(=O)NC4(C)CC4)ccc3n(CC3COC3)c2=O)on1
[ask] Higher efflux ratio between I and II ? The response must carry the label of the picked entry.
[reply] I

###

target: Poly(ADP-ribose) glycohydrolase (Homo sapiens, UniProt Q86W56); experiment: Inhibition of human full length PARG using Bt-NAD ribosylated PARP1 substrate after 10 mins by TR-FRET assay
observed_property: EC50 (µM)

> print(dat)
                         compound.structure  uom  recorded.value
1  Cc1cc(Cn2c(=O)c3cc(S(=O)(=O)NC4(C)CC4)ccc3n(C)c2=O)[nH]n1   µM             3.2
2  CC1(NS(=O)(=O)c2ccc3c(c2)C(=O)c2ccccc2C3=O)CC1   µM               6
3  C#CCn1c(=O)n(Cc2cnc(C)s2)c(=O)c2cc(S(=O)(=O)NC3(C)CC3)ccc21   µM           0.045

(a) Cn1c(=O)n(CC(=O)c2ccccc2)c(=O)c2cc(S(=O)(=O)NC3(C)CC3)ccc21
(b) Cc1cc(Cn2c(=O)c3cc(S(=O)(=O)NC4(C)CC4)ccc3n(Cc3cc(C)nn3C)c2=O)on1
[ask] Higher EC50 between a and b ? The response must carry the label of the picked entry.
[reply] a
(a: 1.6 µM, b: 0.038 µM)

(1) Cc1nc(C)c(Cn2c(=O)c3cc(S(=O)(=O)NC4(C)CC4)ccc3n(C)c2=O)s1
(2) Cn1c(=O)c2cc(S(=O)(=O)NC(C)(C)C)ccc2n(C)c1=O
(3) CCn1c(=O)n(Cc2cc(C)no2)c(=O)c2cc(S(=O)(=O)NC3(C)CC3)ccc21
[ask] Which order do these items take when sorted by rising EC50? List them. Please list each label once, in the requested order.
[reply] 3, 1, 2
(3: 0.33 µM, 1: 0.91 µM, 2: 110 µM)
